- assaySystem: T1, cMetSEMA-567His8 (human, UniProt P08581 25-567, limits assumed)
- T1 construct: In the TR-FRET assay detected by anti-6xhis Europium3+; also called cMetSEMAHis; SEMA domain of c-Met; not shown: C-terminal His tag; the text says His9, the construct name says His8
- T1 sequence (P08581 25-567 limits assumed, form in doubt): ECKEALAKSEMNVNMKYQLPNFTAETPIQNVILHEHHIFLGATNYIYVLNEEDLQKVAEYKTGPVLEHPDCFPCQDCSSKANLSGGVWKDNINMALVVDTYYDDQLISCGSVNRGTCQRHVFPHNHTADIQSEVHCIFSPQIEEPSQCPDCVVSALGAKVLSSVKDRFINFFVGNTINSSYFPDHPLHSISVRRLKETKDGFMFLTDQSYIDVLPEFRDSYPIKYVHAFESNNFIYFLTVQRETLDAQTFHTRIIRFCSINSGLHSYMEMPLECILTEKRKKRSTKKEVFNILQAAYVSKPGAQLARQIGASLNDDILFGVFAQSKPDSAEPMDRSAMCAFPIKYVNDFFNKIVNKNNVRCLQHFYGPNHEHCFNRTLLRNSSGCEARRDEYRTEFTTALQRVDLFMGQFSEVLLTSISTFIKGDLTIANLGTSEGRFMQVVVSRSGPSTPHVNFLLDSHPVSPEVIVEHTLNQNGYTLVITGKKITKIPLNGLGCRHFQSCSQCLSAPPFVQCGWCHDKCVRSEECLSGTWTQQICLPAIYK
- test: TR-FRET; displacement of AlexaFluor-647-HGF from cMetSEMA-567His8
- Experimental: Therefore, the interaction of anti-c-Met antibodies with the SEMA domain of the c-Met receptor was studied using TR-FRET technology. […] The mean fluorescent intensity at 665 nm was measured on the EnVision 2101 Multilabel reader (PerkinElmer). A 4-fold serial dilution of unlabeled anti-c-Met antibody ranging from 0.49-8000 ng/mL was tested. […]
parameterMeasured: % inhibition
In your response, the unit should come after the numeric value.

Answered examples (3):
| binder | % inhibition |
| --- | --- |
| IgG1-1016-058 (antibody, V domains shown, also called IgG1-058; TH1016-058) VH: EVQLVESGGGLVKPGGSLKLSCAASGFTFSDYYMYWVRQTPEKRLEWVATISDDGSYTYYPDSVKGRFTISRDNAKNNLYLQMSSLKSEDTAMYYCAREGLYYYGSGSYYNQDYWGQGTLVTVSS VL: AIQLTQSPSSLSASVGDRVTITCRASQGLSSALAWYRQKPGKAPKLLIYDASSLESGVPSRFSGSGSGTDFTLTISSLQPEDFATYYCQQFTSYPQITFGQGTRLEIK | 99% |
| anti-c-Met HuMab 005 (IgG1) (antibody, V domains shown, also called TH1016-005; PC1016-005) VH: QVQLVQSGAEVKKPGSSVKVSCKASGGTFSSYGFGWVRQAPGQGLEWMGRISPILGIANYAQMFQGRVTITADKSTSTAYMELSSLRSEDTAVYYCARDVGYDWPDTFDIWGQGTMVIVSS VL: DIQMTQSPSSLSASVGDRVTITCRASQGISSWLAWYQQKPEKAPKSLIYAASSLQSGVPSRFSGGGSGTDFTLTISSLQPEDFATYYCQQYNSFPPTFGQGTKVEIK | 92% |
| IgG1-024 (antibody, V domains shown, also called TH1016-024; PC1016-024) VH: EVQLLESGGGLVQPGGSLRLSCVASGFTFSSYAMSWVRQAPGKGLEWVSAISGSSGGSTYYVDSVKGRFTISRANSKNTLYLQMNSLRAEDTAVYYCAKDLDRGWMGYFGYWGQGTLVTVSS VL: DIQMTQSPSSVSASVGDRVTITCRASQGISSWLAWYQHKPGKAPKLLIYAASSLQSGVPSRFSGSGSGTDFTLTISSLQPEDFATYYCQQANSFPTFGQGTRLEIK | 95% |

query: Look at this binder and give its reported % inhibition. anti-c-Met HuMab 006 (IgG1) (antibody, V domains shown, also called TH1016-006; PC1016-006) VH: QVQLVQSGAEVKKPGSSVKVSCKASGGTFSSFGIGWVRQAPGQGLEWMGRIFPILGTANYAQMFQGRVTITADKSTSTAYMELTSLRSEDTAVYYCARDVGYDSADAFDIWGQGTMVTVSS VL: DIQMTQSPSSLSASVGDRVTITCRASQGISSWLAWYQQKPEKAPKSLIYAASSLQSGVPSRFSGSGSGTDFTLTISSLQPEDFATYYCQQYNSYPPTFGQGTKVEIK
result: 92%
